All values here come from patent US8633207B2.

- EXPERIMENTAL SYSTEM: JAK2 (Homo sapiens)
- Sequence (O60674 whole entry): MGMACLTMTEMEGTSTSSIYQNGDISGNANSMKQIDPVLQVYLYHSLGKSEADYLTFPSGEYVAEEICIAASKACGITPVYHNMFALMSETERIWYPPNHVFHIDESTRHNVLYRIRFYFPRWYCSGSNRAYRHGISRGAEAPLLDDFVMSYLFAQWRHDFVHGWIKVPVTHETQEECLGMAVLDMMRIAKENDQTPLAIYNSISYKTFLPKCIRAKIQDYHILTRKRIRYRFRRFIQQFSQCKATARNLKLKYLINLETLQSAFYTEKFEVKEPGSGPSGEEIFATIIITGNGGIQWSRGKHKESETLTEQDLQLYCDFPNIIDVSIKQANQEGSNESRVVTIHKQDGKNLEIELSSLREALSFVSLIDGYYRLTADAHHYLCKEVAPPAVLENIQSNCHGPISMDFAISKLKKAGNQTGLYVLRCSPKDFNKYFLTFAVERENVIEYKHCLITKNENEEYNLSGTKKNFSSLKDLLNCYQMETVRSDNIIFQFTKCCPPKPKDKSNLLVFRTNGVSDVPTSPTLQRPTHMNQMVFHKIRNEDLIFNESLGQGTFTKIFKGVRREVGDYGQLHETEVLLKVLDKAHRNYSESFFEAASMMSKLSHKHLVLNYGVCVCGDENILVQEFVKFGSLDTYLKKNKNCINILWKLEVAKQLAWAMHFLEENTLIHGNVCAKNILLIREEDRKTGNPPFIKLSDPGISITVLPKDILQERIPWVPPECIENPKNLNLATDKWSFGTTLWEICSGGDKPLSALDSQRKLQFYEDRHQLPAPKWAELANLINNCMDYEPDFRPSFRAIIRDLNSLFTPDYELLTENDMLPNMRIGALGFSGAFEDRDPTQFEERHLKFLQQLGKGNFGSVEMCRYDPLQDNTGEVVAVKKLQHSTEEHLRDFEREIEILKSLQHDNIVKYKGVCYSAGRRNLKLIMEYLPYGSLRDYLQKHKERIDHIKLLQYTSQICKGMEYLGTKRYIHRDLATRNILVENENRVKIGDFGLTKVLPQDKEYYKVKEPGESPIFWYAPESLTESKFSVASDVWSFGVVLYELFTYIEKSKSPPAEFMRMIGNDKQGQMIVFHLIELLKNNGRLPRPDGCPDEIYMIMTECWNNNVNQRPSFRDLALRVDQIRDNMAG
VALUE TYPE: Kd

Query: Find the measured Kd of "Cc1cc(Nc2nc(C(F)(F)c3ccc(F)cn3)nc3c(F)cccc23)n[nH]1" and report it.
Reply: ≤ 1 nM

Query: Find the measured Kd of "Cc1cc(Nc2nc(C(F)(F)c3ccc(F)cn3)nc3c(N4CCOCC4=O)cccc23)n[nH]1" and report it.
Reply: ≤ 1 nM

Query: Find the measured Kd of "Cc1cc(Nc2nc(C(F)(F)c3ccc(F)cn3)nc3c(OC(F)(F)F)cccc23)n[nH]1" and report it.
Reply: 1 to 10 nM

Query: Find the measured Kd of "Cc1ccc2c(Nc3cc(C)[nH]n3)nc(C(F)(F)c3ccc(F)cn3)nc2c1" and report it.
Reply: ≤ 1 nM

Query: Find the measured Kd of "COc1ccc2c(Nc3cc(C)[nH]n3)nc(C(F)(F)c3ccc(F)cn3)nc2c1" and report it.
Reply: ≤ 1 nM

Query: Find the measured Kd of "Cc1cc(Nc2nc(C(F)(F)c3ccc(F)cn3)nc3c(C(F)(F)F)cccc23)n[nH]1" and report it.
Reply: 1 to 10 nM

Query: Find the measured Kd of "Cc1cc(Nc2nc(C(F)(F)c3ccc(F)cn3)nc3c(C)cccc23)n[nH]1" and report it.
Reply: ≤ 1 nM

Query: Find the measured Kd of "Cc1cc(Nc2nc(C(F)(F)c3ccc(F)cn3)nc3c(C(N)=O)cccc23)n[nH]1" and report it.
Reply: ≤ 1 nM

Query: Find the measured Kd of "Cc1cc(Nc2nc(C(F)(F)c3ccc(F)cn3)nc3c(Cl)cccc23)n[nH]1" and report it.
Reply: ≤ 1 nM

Query: Find the measured Kd of "Cc1cc(Nc2nc(C(F)(F)c3ccc(F)cn3)nc3c(C#N)cccc23)n[nH]1" and report it.
Reply: ≤ 1 nM

Query: Find the measured Kd of "Cc1cnc(Nc2nc(C(F)(F)c3ccc(F)cn3)nc3ccccc23)s1" and report it.
Reply: 1 to 10 nM
